- Tested on: Inhibin beta A chain (activin A)
- METHOD_NOTES: INHBA (activin A) binders on microarrays, primary screen, biochemical, small-molecule microarray, 635 nm fluorescence scan (AID 1107);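 note: mouse activin A protein probed at 4.33 µg/mL on printed slides; score merges bound-protein fluorescence near 667 nm with spot signal-to-noise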
- PROTOCOL_CONDITIONS: small-molecule microarray binding, higher = more signal
MEASURE_NAME: composite z-score
Respond numerically, and do not add a unit to the figure.

*Q* Sample `CCOC(=O)C1=NO[C@@]2(C=C(Br)C3(OCCCO3)[C@H]3O[C@H]32)C1` — what was its composite z-score?
*A* 1.59

*Q* Next compound: `COc1ccc(COC(=O)NN=C2C[C@@H](O)[C@@H](O)[C@@H]3[C@@H]4C(=O)N(c5cccc(Oc6ccccc6)c5)C(=O)[C@@H]4CC[C@@H]23)cc1`
*A* 0.247

*Q* Could you do the same for CCOC(=O)[C@H](CC(C)C)NC(=O)CCC1CC(OC(=O)NCc2cccc3ccccc23)CC2(CCCC(COC(=O)NCCC(C)C)O2)O1 (stereo partly drawn) , please?
*A* 0.203

*Q* What do you have for `COc1cccc([C@H]2Oc3ccc(OC)cc3C(=NOC[C@@H](O)[C@H]3O[C@@H]4OC(C)(C)O[C@@H]4[C@H]3O)[C@@H]2O)c1` ?
*A* -0.326

*Q* Same read-out for `O=C1[C@H]2[C@H]3[C@H](O)[C@H](O)CC(=NOC[C@@H](O)COCc4ccco4)[C@@H]3CC[C@H]2C(=O)N1C[C@@H]1CCCO1` ?
*A* 1.22

*Q* CCOC(=O)[C@H](CC(C)C)NC(=O)CCC1CC(OC(=O)NCCc2ccc(F)cc2)CC2(CCCC(COC(=O)NCCc3ccc(Cl)cc3)O2)O1 (stereo partly drawn) ?
*A* -1.71

*Q* Entry CCOC(=O)[C@H](CC(C)C)NC(=O)CCC1CC(OC(=O)NCc2ccc3c(c2)OCO3)CC2(CCCC(COC(=O)NCCCN3CCCC3=O)O2)O1 (stereo partly drawn) please
*A* -0.0813

*Q* Again, but for `CC(C)CCN1CCc2nc(COc3ccccc3)c3c(c2C1)CO[C@@H](C)C3`
*A* 0.71

*Q* Quick one: `COc1ccc(COC(=O)NN=C2C[C@@H](O)[C@@H](O)[C@@H]3[C@@H]4C(=O)N(C5CCCCC5)C(=O)[C@@H]4CC[C@H]23)cc1`
*A* 0.699

*Q* Follow-up entry: `COC(=O)CC=C[C@@H](C)[C@@H](C=NOC[C@H]1O[C@H](c2ccccc2)C=C[C@@H]1Oc1ccc(OC)cc1)NS(=O)(=O)c1ccc(C)cc1`
*A* 0.797

*Q* Another compound to check: CCOC(=O)[C@H](CC(C)C)NC(=O)CCC1CC(OC(=O)NCc2cccc3ccccc23)CC2(CCCC(COC(=O)NCc3ccncc3)O2)O1 (stereo partly drawn)
*A* -0.177

*Q* Next compound up: CCOC(=O)[C@H](CC(C)C)NC(=O)CCC1CC(OC(=O)NCCc2ccc(F)cc2)CC2(CCCC(COC(=O)NCCOc3ccccc3)O2)O1 (stereo partly drawn)
*A* -0.0219

*Q* Field entry: `COc1cccc([C@H]2Oc3ccc(OC)cc3C(=NO[C@H](C)c3cn([C@H](CO)Cc4ccccc4)nn3)[C@@H]2O)c1`
*A* 0.548

*Q* What do you have for `CC[C@@H](c1ccccc1)n1c(=O)n2n(c1=O)[C@H]1[C@H](O)[C@@H]3O[C@@H]3C(=O)[C@H]1CC2` ?
*A* 0.384

*Q* Ok, now `CCN1C(=O)[C@H]2[C@H]3[C@H](O)[C@H](O)CC(=NOC[C@H]4O[C@H](c5ccccc5)C=C[C@@H]4Oc4ccc(OC)cc4)[C@@H]3CC[C@H]2C1=O`
*A* -0.0495

*Q* Then what about the compound `CCCNC(=O)OC[C@H]1O[C@H](CCON=C(C)CCC(=O)OC[C@H]2O[C@H](c3ccccc3)C=C[C@@H]2Oc2ccc(OC)cc2)C=C[C@@H]1Oc1ccc(OC)cc1` ?
*A* 0.844

*Q* Same thing, different compound: COCCNC(=O)OCC1CCCC2(CC(OC(=O)NCc3ccc4c(c3)OCO4)CC(CCC(=O)N[C@@H](C)C(=O)OC)O2)O1 (stereo partly drawn)
*A* 0.0253

*Q* What would you report for CCOC(=O)[C@H](CC(C)C)NC(=O)CCC1CC(OC(=O)NCc2cccc3ccccc23)CC2(CCCC(COC(=O)NCCOc3ccccc3)O2)O1 (stereo partly drawn) ?
*A* 0.184

*Q* Next record, please: `CCN1C(=O)[C@H]2[C@H]3[C@H](O)[C@H](O)CC(=NNC(=O)OCc4ccc(OC)cc4)[C@@H]3CC[C@H]2C1=O`
*A* 0.242

*Q* Also `COC(=O)[C@@H]1CC[C@H](C)[C@@H](c2ccc(C)cc2)N1C(=O)c1ccc(C=NOCC[C@@H]2C=C[C@H](OC(C)=O)[C@@H](COC(C)=O)O2)cc1` , if possible.
*A* 0.323

*Q* // next record O=C1CCCC=C1C(CCc1ccccc1)OC(=O)c1ccc(Br)cc1 (stereo not drawn)
*A* 0.608

*Q* Another: `CCC(=O)[C@@]1(O)C(=O)N2C(=C3C(=O)OCC[C@@H]31)N(Cc1ccccc1)C(C)=C(C(=O)OC)[C@H]2c1ccccc1`
*A* -0.0748

*Q* Cool, now `CCCNC(=O)OC[C@H]1O[C@H](CCON=C(C)CCN2CCc3nc(CC)c(CC)cc3C2)C=C[C@@H]1Oc1ccc(OC)cc1`
*A* 0.886

Hey, just so you know, these numbers are from PubChem BioAssay.
